System: E. coli TEM-30; also: key: S: susceptible; I: intermediate; R: resistant
Format: cell-based, Escherichia coli
MEASUREMENT CONDITIONS: E. coli TEM-30
MEASURE NAME: Interoretation

compound="C=CC1=C(C(=O)O)N2C(=O)[C@@H](NC(=O)/C(=N\\OCC(=O)O)c3csc(N)n3)[C@H]2SC1 [Cefixime]" measure_name=Interoretation assay_value=*I
compound="CNC(C)C1CCC(N)C(OC2C(N)CC(N)C(OC3OCC(C)(O)C(NC)C3O)C2O)O1 (stereo not shown) [Gentamicin]" measure_name=Interoretation assay_value=R
compound="O=C1CN(/N=C/c2ccc([N+](=O)[O-])o2)C(=O)N1 [Nitrofurantoin]" measure_name=Interoretation assay_value=S
compound="CO/N=C(\\C(=O)N[C@@H]1C(=O)N2C(C(=O)O)=C(COC(C)=O)CS[C@H]12)c1csc(N)n1 [Cefotaxime]" measure_name=Interoretation assay_value=R
